Record form. Attribute: pIC50. Fill in for each entry.
System: A498 cells
Assay: Drug cytotoxicity with or without 10 μM modulator, A498 cells (Table V)
Conditions: Homo sapiens, A498, read-out: IC50 (EtOH)
Remember, pIC50 is on a log scale: it is -log10 of the molar concentration.

Data request: Assign pIC50 to the following record: CC(=O)O[C@H]1C(=O)[C@@]2(C)[C@H]([C@H](OC(=O)c3ccccc3)[C@]3(O)C[C@H](OC(=O)[C@H](O)[C@@H](NC(=O)c4ccccc4)c4ccccc4)C(C)=C1C3(C)C)[C@]1(OC(C)=O)CO[C@@H]1C[C@@H]2O [Taxol, reference compound]
Data returned: 7.31

Data request: Assign pIC50 to the following record: CC[C@]1(O)C[C@H]2CN(CCc3c([nH]c4ccccc34)[C@@](C(=O)OC)(c3cc4c(cc3OC)N(C=O)[C@H]3[C@@](O)(C(=O)OC)[C@H](OC(C)=O)[C@]5(CC)C=CCN6CC[C@]43[C@@H]65)C2)C1 [Vincristine, vincristine, reference compound]
Data returned: 7.21

Data request: Assign pIC50 to the following record: CC[C@]1(O)C[C@@H]2CN(CCc3c([nH]c4ccccc34)[C@@](C(=O)OC)(c3cc4c(cc3OC)N(C)[C@H]3[C@@](O)(C(=O)OC)[C@H](OC(C)=O)[C@]5(CC)C=CCN6CC[C@]43[C@@H]65)C2)C1 [Vinblastine, vinblastine, reference compound]
Data returned: 8.12

Data request: Assign pIC50 to the following record: O=c1[nH]cc(F)c(=O)[nH]1 [5-Fluorouracil, 5-fluorouracil, reference compound]
Data returned: 5.05

---

Target: MRP (Homo sapiens)
Construct: MCF-7/VP cells, a cell line that expresses MRP; endogenous in cells; host or cells: MCF-7/VP cells
Sequence (P33527 whole entry): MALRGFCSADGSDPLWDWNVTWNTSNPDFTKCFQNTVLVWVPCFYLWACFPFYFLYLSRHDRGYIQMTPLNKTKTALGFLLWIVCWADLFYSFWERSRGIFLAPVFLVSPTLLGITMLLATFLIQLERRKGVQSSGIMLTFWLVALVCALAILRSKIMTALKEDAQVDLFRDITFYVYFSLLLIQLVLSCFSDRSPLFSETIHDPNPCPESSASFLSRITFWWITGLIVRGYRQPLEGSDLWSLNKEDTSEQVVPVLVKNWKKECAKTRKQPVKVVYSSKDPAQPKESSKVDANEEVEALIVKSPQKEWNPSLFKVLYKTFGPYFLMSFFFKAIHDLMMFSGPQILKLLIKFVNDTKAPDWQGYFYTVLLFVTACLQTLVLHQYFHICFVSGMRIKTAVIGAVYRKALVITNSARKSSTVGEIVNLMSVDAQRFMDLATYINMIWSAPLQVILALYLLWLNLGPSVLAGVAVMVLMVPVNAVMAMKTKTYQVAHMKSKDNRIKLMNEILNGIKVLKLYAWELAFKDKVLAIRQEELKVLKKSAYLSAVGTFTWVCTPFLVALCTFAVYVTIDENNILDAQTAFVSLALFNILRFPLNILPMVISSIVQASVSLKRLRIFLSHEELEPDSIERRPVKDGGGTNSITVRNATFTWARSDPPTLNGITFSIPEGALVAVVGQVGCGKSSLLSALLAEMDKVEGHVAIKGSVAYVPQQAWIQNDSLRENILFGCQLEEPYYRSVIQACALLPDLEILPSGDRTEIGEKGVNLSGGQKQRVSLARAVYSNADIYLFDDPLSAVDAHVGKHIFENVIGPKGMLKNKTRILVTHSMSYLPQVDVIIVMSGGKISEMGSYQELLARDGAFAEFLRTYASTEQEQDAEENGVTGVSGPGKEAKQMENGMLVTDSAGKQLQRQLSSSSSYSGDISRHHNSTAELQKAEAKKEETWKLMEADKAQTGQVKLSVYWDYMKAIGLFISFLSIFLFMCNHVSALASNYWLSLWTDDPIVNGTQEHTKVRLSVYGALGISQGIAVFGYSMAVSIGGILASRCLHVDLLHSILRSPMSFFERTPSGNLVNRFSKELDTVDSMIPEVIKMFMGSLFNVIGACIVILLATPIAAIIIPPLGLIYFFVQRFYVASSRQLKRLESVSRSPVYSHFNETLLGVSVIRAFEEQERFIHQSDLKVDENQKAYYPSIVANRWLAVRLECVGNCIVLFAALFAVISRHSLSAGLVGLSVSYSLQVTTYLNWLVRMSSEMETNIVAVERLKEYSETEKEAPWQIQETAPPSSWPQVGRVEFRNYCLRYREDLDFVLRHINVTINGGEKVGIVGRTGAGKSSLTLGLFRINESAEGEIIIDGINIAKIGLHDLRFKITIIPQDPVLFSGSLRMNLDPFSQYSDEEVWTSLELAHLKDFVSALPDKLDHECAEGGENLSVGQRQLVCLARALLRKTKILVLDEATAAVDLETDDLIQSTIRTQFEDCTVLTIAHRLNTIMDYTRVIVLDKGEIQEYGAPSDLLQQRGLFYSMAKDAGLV
Experiment: Reversal of MRP-mediated MDR: enhancement of vincristine cytotoxicity toward MCF-7/VP cells
Type: cell-based
Details: % survival with compound alone / with compound + 1 nM vincristine, >1.0 = chemosensitization
readout_type: MRP1 antagonism score
Form: value (number only, do not type unit).

Data request: Assign MRP1 antagonism score to the following record: CN(C)c1cccc(OCc2nc3ccccc3n(C)c2=O)c1 [Compound 12]
Data returned: 0.9

Data request: Assign MRP1 antagonism score to the following record: Cn1c(=O)c(COc2ccc(F)cc2)nc2ccccc21 [Compound 2]
Data returned: 0.8

Data request: Assign MRP1 antagonism score to the following record: COc1cc(OCc2nc3ccccc3n(C)c2=O)cc(OC)c1OC [Compound 23]
Data returned: 0.9

Data request: Assign MRP1 antagonism score to the following record: Cn1c(=O)c(COc2ccc(C#N)cc2)nc2ccccc21 [Compound 3]
Data returned: 0.8

Data request: Assign MRP1 antagonism score to the following record: Cn1c(=O)c(COc2ccccc2Cc2ccccc2)nc2ccccc21 [Compound 15]
Data returned: 1.1

Data request: Assign MRP1 antagonism score to the following record: COc1cc(OC)cc(OCc2nc3ccccc3n(C)c2=O)c1 [Compound 21]
Data returned: 0.9

Data request: Assign MRP1 antagonism score to the following record: COC(=O)c1ccc(OCc2nc3ccccc3n(C)c2=O)c(OC)c1 [Compound 10]
Data returned: 1.1

Data request: Assign MRP1 antagonism score to the following record: Cc1cc(OCc2nc3ccccc3n(C)c2=O)ccc1[N+](=O)[O-] [Compound 9]
Data returned: 1.1

Data request: Assign MRP1 antagonism score to the following record: Cn1c(=O)c(COc2ccccc2C(=O)Nc2ccccc2)nc2ccccc21 [Compound 11]
Data returned: 1.0

---

Record form. Attribute: P-gp antagonism score. Fill in for each entry.
Biological target: P-gp (Homo sapiens)
Sequence (P08183 whole entry): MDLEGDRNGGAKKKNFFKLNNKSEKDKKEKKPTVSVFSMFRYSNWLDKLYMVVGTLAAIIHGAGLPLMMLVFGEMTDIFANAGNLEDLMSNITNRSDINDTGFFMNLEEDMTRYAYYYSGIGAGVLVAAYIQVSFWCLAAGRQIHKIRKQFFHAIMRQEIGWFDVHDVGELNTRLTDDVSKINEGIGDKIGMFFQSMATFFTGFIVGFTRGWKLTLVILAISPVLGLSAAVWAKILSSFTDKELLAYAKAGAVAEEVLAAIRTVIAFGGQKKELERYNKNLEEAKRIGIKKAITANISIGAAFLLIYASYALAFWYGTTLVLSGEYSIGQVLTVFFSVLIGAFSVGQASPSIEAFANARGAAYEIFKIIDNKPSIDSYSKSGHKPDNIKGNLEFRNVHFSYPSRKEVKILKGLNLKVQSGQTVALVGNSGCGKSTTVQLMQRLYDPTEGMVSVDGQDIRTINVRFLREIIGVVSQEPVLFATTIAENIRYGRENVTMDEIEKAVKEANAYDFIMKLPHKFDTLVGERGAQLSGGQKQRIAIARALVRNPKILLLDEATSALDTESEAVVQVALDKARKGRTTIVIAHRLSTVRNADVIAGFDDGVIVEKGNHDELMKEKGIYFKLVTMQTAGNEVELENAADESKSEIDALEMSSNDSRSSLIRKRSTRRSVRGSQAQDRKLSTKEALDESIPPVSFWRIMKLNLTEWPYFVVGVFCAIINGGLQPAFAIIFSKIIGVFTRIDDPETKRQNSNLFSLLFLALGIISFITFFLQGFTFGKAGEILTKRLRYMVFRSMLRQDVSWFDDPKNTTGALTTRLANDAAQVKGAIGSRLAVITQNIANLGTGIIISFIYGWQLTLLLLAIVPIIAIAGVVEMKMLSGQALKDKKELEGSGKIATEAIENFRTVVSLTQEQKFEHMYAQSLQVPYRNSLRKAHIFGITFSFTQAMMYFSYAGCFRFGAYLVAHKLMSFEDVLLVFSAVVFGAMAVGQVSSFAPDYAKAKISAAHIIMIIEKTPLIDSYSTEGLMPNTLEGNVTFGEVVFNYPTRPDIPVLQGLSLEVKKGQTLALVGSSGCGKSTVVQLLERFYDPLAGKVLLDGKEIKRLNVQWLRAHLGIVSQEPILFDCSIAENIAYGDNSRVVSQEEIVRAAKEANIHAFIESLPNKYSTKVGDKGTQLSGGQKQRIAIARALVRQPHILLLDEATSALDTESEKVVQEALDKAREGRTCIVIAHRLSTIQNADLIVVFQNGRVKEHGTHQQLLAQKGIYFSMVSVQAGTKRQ
Settings: NCI/ADR cells; % survival with compound alone / with compound + 50 nM vinblastine; >1.0 = chemosensitization
Form: value (number only, do not type unit).

Data request: Assign P-gp antagonism score to the following record: COc1cc(OCc2nc3ccccc3n(C)c2=O)cc(OC)c1OC [Compound 23]
Data returned: 1.2

Data request: Assign P-gp antagonism score to the following record: Cc1cc(OCc2nc3ccccc3n(C)c2=O)ccc1[N+](=O)[O-] [Compound 9]
Data returned: 1.6

Data request: Assign P-gp antagonism score to the following record: CCOC(=O)c1ccc(OCc2nc3ccccc3n(C)c2=O)cc1 [Compound 13]
Data returned: 3.8

Data request: Assign P-gp antagonism score to the following record: Cn1c(=O)c(COc2cccc(Nc3ccccc3)c2)nc2ccccc21 [Compound 14]
Data returned: 1.3

Data request: Assign P-gp antagonism score to the following record: Cn1c(=O)c(COc2c(F)c(F)c(F)c(F)c2F)nc2ccccc21 [Compound 4]
Data returned: 2.1

Data request: Assign P-gp antagonism score to the following record: Cn1c(=O)c(COc2cccnc2)nc2ccccc21 [Compound 16]
Data returned: 1.0

Data request: Assign P-gp antagonism score to the following record: CN(C)c1cccc(OCc2nc3ccccc3n(C)c2=O)c1 [Compound 12]
Data returned: 1.1

Data request: Assign P-gp antagonism score to the following record: Cn1c(=O)c(COc2ccccc2Cc2ccccc2)nc2ccccc21 [Compound 15]
Data returned: 1.0

Data request: Assign P-gp antagonism score to the following record: COC(=O)c1ccc(OCc2nc3ccccc3n(C)c2=O)c(OC)c1 [Compound 10]
Data returned: 5.6

---

Record form. Attribute: p-GP/MRP1. Fill in for each entry.
Biological target: UniProt:P08183
Conditions: ratio of P-gp and MRP1 antagonism scores
Form: value (number only, do not type unit).

Data request: Assign p-GP/MRP1 to the following record: Cn1c(=O)c(COc2cccc(Nc3ccccc3)c2)nc2ccccc21
Data returned: 1.5

Data request: Assign p-GP/MRP1 to the following record: Cc1cc(OCc2nc3ccccc3n(C)c2=O)ccc1[N+](=O)[O-]
Data returned: 1.4

Data request: Assign p-GP/MRP1 to the following record: Cn1c(=O)c(COc2ccccc2Cc2ccccc2)nc2ccccc21
Data returned: 0.9

Data request: Assign p-GP/MRP1 to the following record: CN(C)c1cccc(OCc2nc3ccccc3n(C)c2=O)c1
Data returned: 1.1

Data request: Assign p-GP/MRP1 to the following record: COc1cc(OCc2nc3ccccc3n(C)c2=O)cc(OC)c1OC
Data returned: 1.3

Data request: Assign p-GP/MRP1 to the following record: CCOC(=O)c1ccc(OCc2nc3ccccc3n(C)c2=O)cc1
Data returned: 4.2

Data request: Assign p-GP/MRP1 to the following record: Cn1c(=O)c(COc2c(F)c(F)c(F)c(F)c2F)nc2ccccc21
Data returned: 2.6

Data request: Assign p-GP/MRP1 to the following record: COC(=O)c1ccc(OCc2nc3ccccc3n(C)c2=O)c(OC)c1
Data returned: 5.2

Data request: Assign p-GP/MRP1 to the following record: Cn1c(=O)c(COc2cccnc2)nc2ccccc21
Data returned: 0.9

---

System: T24 cells
Assay: Drug cytotoxicity with or without 10 μM modulator, T24 cells (Table V)
Conditions: Homo sapiens, T-24, read-out: IC50 (EtOH)
Record form. Attribute: pIC50. Fill in for each entry.
Remember, pIC50 is on a log scale: it is -log10 of the molar concentration.

Data request: Report its pIC50 with T24 cells as the test system: CC[C@]1(O)C[C@@H]2CN(CCc3c([nH]c4ccccc34)[C@@](C(=O)OC)(c3cc4c(cc3OC)N(C)[C@H]3[C@@](O)(C(=O)OC)[C@H](OC(C)=O)[C@]5(CC)C=CCN6CC[C@]43[C@@H]65)C2)C1 [Vinblastine, vinblastine, reference compound]
Data returned: 8.89

Data request: Report its pIC50 with T24 cells as the test system: CC[C@]1(O)C[C@H]2CN(CCc3c([nH]c4ccccc34)[C@@](C(=O)OC)(c3cc4c(cc3OC)N(C=O)[C@H]3[C@@](O)(C(=O)OC)[C@H](OC(C)=O)[C@]5(CC)C=CCN6CC[C@]43[C@@H]65)C2)C1 [Vincristine, vincristine, reference compound]
Data returned: 8.32

Data request: Report its pIC50 with T24 cells as the test system: CC(=O)O[C@H]1C(=O)[C@@]2(C)[C@H]([C@H](OC(=O)c3ccccc3)[C@]3(O)C[C@H](OC(=O)[C@H](O)[C@@H](NC(=O)c4ccccc4)c4ccccc4)C(C)=C1C3(C)C)[C@]1(OC(C)=O)CO[C@@H]1C[C@@H]2O [Taxol, reference compound]
Data returned: 8.33

Data request: Report its pIC50 with T24 cells as the test system: O=c1[nH]cc(F)c(=O)[nH]1 [5-Fluorouracil, 5-fluorouracil, reference compound]
Data returned: 4.11

---

Biological target: MRP (Homo sapiens)
Construct: MCF-7/VP cells, a cell line that expresses MRP; endogenous in cells; host or cells: MCF-7/VP cells
Assay: Reversal of MRP-mediated MDR: enhancement of vincristine cytotoxicity toward MCF-7/VP cells
Assay type: cell-based
Settings: % survival with compound alone / with compound + 1 nM vincristine, >1.0 = chemosensitization
readout_type: MRP1 antagonism score

Data request: Assign MRP1 antagonism score to the following record: CCOC(=O)c1ccc(OCc2nc3ccccc3n(C)c2=O)cc1
Data returned: 0.9

Data request: Assign MRP1 antagonism score to the following record: Cn1c(=O)c(COc2c(F)c(F)c(F)c(F)c2F)nc2ccccc21
Data returned: 0.8

Data request: Assign MRP1 antagonism score to the following record: COc1ccc(OCc2nc3ccccc3n(C)c2=O)cc1OC
Data returned: 0.9

Data request: Assign MRP1 antagonism score to the following record: Cn1c(=O)c(COc2cccc(Nc3ccccc3)c2)nc2ccccc21
Data returned: 0.9

Data request: Assign MRP1 antagonism score to the following record: Cn1c(=O)c(COc2ccc(-c3ccccc3)cc2)nc2ccccc21
Data returned: 0.7
